target: panel of 442 kinases (Homo sapiens, UniProt P00519, F317L); construct: purchased Ambit Biosciences (scanMAXX KINOMEscan); test: biochemical; format: binding; conditions: ABL1(F317L)-nonphosphorylated; 1 µM; read-out: % of control at 1 µM
Sequence (P00519 whole entry F317L): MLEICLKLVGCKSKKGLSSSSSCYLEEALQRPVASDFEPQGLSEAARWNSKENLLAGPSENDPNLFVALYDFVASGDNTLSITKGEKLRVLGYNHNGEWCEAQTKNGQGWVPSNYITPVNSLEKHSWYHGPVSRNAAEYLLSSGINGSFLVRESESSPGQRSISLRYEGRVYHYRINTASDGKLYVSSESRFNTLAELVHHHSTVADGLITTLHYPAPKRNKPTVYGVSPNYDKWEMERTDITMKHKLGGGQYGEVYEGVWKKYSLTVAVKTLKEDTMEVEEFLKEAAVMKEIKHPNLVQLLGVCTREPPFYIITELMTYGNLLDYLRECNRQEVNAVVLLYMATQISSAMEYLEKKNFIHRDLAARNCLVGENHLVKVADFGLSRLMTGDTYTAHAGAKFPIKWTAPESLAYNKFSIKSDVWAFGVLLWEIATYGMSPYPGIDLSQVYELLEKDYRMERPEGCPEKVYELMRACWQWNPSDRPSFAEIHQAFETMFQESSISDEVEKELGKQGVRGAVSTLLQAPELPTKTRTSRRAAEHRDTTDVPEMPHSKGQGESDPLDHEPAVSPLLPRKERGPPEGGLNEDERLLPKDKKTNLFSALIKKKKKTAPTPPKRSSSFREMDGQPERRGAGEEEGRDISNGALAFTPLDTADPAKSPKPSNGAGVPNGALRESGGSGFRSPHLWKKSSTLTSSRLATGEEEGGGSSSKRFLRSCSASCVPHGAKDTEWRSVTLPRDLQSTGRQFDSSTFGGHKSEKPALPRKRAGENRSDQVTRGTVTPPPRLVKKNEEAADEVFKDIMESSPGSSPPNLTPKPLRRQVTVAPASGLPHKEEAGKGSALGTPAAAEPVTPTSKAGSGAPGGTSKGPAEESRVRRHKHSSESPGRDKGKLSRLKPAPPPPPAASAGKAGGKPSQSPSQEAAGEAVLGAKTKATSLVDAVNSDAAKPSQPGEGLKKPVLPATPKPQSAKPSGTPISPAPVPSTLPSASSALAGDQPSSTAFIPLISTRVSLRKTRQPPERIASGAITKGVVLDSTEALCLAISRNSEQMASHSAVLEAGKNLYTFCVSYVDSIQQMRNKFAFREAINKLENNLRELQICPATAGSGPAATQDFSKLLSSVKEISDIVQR
Overview of reported remaining activity at 1 µM across a group of compounds:
Response body: numeric value in %, unit text excluded.

Nc1cc(C(F)(F)F)c(-c2cc(N3CCOCC3)nc(N3CCOCC3)n2)cn1
100
COc1ncc(-c2ccc3nccc(-c4ccnnc4)c3c2)cc1NS(=O)(=O)c1ccc(F)cc1F
87
FC(F)c1nc2ccccc2n1-c1nc(N2CCOCC2)nc(N2CCOCC2)n1
85

With those in mind, consider the next compound.
For reference, reported remaining activity at 1 µM for `Cn1c(=O)n(-c2ccc(C(C)(C)C#N)cc2)c2c3cc(-c4cnc5ccccc5c4)ccc3ncc21` stands at 100
